Experimental system: human progesterone receptor A (PR-A) (Homo sapiens)
Sequence (P06401 165-933): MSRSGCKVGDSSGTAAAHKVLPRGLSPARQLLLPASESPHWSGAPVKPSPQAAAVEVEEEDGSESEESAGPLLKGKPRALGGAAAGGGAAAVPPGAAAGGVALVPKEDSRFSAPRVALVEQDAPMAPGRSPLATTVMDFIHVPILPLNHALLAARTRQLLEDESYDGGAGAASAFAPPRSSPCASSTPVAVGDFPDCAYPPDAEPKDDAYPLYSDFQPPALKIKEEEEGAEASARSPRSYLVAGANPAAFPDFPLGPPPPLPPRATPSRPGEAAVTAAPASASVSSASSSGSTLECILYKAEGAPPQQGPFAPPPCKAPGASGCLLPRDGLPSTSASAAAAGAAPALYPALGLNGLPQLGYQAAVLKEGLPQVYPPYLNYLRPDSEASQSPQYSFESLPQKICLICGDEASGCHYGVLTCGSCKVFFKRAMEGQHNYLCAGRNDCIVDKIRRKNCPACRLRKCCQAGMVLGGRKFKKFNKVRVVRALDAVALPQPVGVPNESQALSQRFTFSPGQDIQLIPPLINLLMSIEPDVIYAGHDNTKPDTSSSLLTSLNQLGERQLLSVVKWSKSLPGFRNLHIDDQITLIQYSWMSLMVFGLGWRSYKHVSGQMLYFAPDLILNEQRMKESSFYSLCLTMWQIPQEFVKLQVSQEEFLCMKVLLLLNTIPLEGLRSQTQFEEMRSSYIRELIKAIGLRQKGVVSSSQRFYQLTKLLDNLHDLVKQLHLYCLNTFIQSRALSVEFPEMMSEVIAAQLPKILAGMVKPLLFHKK
Protocol description: Antagonistic activity against promegestone, MTV-LUC reporter in SK-N-MC cells stably transfected with PR-A
Conditions: antagonistic activity vs 0.1 nmol/l promegestone, SK-N-MC cells, mean ± SD; read-out: Potency IC50, PR-A
Description: […]
Could you please report measured IC50 for the items listed next?
Numbers only, in nM.

C[C@]12C[C@H](c3ccc(C(O)CO)cc3)C3=C4CCC(=O)C=C4CC[C@H]3[C@@H]1CC[C@@]2(O)C(F)(F)C(F)(F)F (mixture of isomers) :: 1.87

Answer for every listed entry: what is its IC50? The entries follow.
1. C[C@]12C[C@H](c3ccc(C(=O)CO)cc3)C3=C4CCC(=O)C=C4CC[C@H]3[C@@H]1CC[C@@]2(O)C(F)(F)C(F)(F)F
2. CC(=O)c1ccc([C@H]2C[C@@]3(C)[C@@H](CC[C@@]3(O)C(F)(F)C(F)(F)F)[C@@H]3CCC4=CC(=O)CCC4=C32)cc1 [reference compound]

Data returned:
1: 0.18; 2: 0.014
